Read-out: Macrophage colony-stimulating factor (MCSF), CSF1 (gene 1435)
TEST_NAME: BSK_LPS_MCSF: BioMAP Diversity Plus: LPS Assay for Macrophage colony-stimulating factor (MCSF) Biomarker Activity (AID 2283083)
ASSAY_SETUP: primary human HUVEC with PBMC; actives raise or lower the signal
Calls of active or inactive are those of the source. Rule for the calls: active = hit-call score of the fitted dose curve at least 0.9, where 1 is the maximum; inactive = score below 0.9.
Please state which outcome applies, choosing from True = active, False = inactive

Worked cases, answers included:
[[record]]
compound = "CCCCC/C=C/C=C/C=O"
assigned_class = "True"

[[record]]
compound = "CCCCC(CC)COC(=O)/C=C\\C(=O)OCC(CC)CCCC (configuration not stated)"
assigned_class = "False"


# outcome recorded in this test, key = "CC(C)c1ccc(C(C)C)cc1"
False

What do you have for OC1OC[C@@H](O)[C@H](O)[C@H]1O (some centres not stated) ?
False

Continue with "O=[N+]([O-])c1cc(C(F)(F)F)ccc1Cl"
False

Try "CCC(=O)OCc1ccccc1" next.
False

Continue with "Cc1ccc2n[nH]nc2c1"
False

src = PubChem BioAssay (EPA / NIEHS)
